Tested on: RXF 393 renal
testProtocol: NCI tumour cell line growth inhibition, 48 h
measuredAttribute: TGI

(Q) Let me know recorded TGI for CC1(C)CCc2c(c(N=Nc3ccc(S(N)(=O)=O)cc3)c3ccccc3c2O)O1 , thanks.
(A) 24.6 µM

(Q) Let me know recorded TGI for Cc1ccc(NC2=C(Cl)C(=O)N(Cc3ccc(Cl)cc3)C2=O)cc1O , thanks.
(A) 36.4 µM

(Q) Let me know recorded TGI for CCO/C=N\c1c(C#N)c(-c2ccc(Cl)cc2)cn1-c1ccc(C)cc1 , thanks.
(A) > 100 µM

(Q) Let me know recorded TGI for COc1cc(S(=O)(=O)Nc2nc(-c3ccc(N4C(=O)/C(=C/C=C/c5ccccc5)N=C4c4ccccc4)cc3)cs2)ccc1Cl , thanks.
(A) > 100 µM

(Q) Let me know recorded TGI for Cc1c(CCN2CCOCC2)c(N2CCOCC2)n2c(nc3ccccc32)c1C#N , thanks.
(A) > 10 µM

(Q) Let me know recorded TGI for N#CC1C(=O)SC2c3ccccc3C(=O)c3ccccc3C12 (configuration not stated) , thanks.
(A) > 10 µM

(Q) Let me know recorded TGI for O=c1c2cc(-c3ccccc3)sc2nc2n1N=C(c1ccc(Cl)cc1)CS2 , thanks.
(A) > 100 µM
